test: Mouse oral PK and tissue distribution, fed state; format: in vivo; settings: male, C57BL/6, mouse, liver; single oral dose 10 mg/kg, fed mice; read-out: Liver Tmax
assay_metric: Tmax (h)
The figure you give is taken to be in h; do not add the unit.

**Query** For the molecule shown here, C[C@H](Cn1cnc2c(N)ncnc21)OCP(=O)(O)OC[C@H](COCCCCCCCCCCCCCCCC(F)(F)F)OCc1ccccc1 [21a] , give the reported Tmax.
**Result** 4

**Query** Name the reported Tmax value associated with the molecule C[C@H](Cn1cnc2c(N)ncnc21)OCP(=O)(O)OC[C@H](COCCCCCCCCCCCCCCCCCC(F)(F)F)OCc1ccccc1 [21b]
**Result** 4

**Query** GET /values?readout=Tmax&item= C[C@H](Cn1cnc2c(N)ncnc21)OCP(=O)(O)OCCCOCCCCCCCCCCCCCCCCCC(F)(F)F [15b]
**Result** 4
